The reported numbers originate from paper PMC10958042.

B1: ATGL (PNPLA2, patatin-like phospholipase domain-containing protein 2), human, full length / perilipin-5, mouse (mPlin5) (parent)
chain 1: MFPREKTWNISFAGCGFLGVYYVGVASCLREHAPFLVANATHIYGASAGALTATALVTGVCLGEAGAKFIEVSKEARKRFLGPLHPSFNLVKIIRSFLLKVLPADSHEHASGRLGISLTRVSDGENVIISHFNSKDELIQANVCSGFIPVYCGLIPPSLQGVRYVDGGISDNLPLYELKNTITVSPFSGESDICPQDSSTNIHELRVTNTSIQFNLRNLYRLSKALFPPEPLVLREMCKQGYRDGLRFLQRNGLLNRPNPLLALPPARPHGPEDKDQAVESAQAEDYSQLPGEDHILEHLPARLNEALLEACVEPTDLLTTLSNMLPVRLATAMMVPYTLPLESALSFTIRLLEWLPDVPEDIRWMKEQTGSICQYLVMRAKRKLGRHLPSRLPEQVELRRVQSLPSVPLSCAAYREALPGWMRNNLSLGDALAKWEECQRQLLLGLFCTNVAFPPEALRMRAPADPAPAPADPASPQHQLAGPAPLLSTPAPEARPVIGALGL
chain 2: MDQRGEDTTLAPHSRMSGDQTAQDPGSSLGELDQQNVVNRVVALPLVKATCTAVSSAYNSAKDRHPLLGSACRLAEHCVCSVTTCALDHAQPLLEHLQPQLATVNDLACRGLDKLEEKLPFLQQPSDMVVTSAKDTVAKSVTGMVDLAQRGRRWSGELRRSMSQAMDMVLGKSEKLVDRFLPMTEAELAVLAAEAEGPEVGTVEEQRQQQGYFVRLGSLSARLRHLAYEHSLGKLRQSKHRTQEMLAQLQETLELIQHMQRGASPSPTFHPPKTQELWGSWSPCLENGRSHSEVELETLALSRSLTLELQNAVDALAGCVRGLPPSAQAKVAEVQRSVDALQATFADAHCLGDVAPTALAEGRGSVARAHACVDEFLDLVLRAMPLPWLVGPFAPILVEQSEPLINLATCVDEVVGDPDPRWAHMDWPAQKRAWEAESADPGGQEAEPPRGQGKHTMMPELDF

Variants of: B1
assay procedure: LUMIER: Protein A-ATGL variant and firefly luciferase-partner co-expressed in HEK293T, lysates immunoprecipitated on IgG-coated plates, co-precipitated partner measured as luciferase luminescence
details: with perilipin-5, mouse (mPlin5), transient co-transfection, IgG-coated LUMITRAC plates, 2 h at 4 °C, three PBS washes, Bright-Glo luciferase reagent, triplicates per assay, two …, parent: 0.15, not graded, scale: log2 fold change of co-immunoprecipitated luminescence relative to wild-type ATGL within each experiment
Classification field: 1 (yes) = screen value at or over -0.4; 0 (no) = screen value under -0.4.

INSERT INTO measurements (mut, cat) VALUES
  ('chain 1 L159A', '0 (no)'),
  ('chain 1 I70A', '0 (no)'),
  ('chain 1 R113K', '1 (yes)');

Form field: screen value at least -0.4? Entry: chain 1 G66L
0 (no)
